Test system: Fibroblast
measurementProtocol: Multiplex assay against human fibroblast
Assay type: toxicity, cell-based
experimentalParameters: 48 h, 10 µM, compound concentration 10 uM, replicate 1
measureName: Population Hoechst High Intensity Objects (%)
Value expressed in %; do not type the unit.

Request: // fetch Population Hoechst High Intensity Objects (%) for Cl.N=C(N)NC(=O)Cc1c(Cl)cccc1Cl [GUANFACINE HYDROCHLORIDE] ; system: Fibroblast
Result: 1

Request: // fetch Population Hoechst High Intensity Objects (%) for `N#Cc1c(Oc2cccc(OS(=O)(=O)CCCC(F)(F)F)c2)cccc1C(F)(F)F` ; system: Fibroblast
Result: 9

Request: // fetch Population Hoechst High Intensity Objects (%) for CC(=O)Nc1cccc2c1c(Sc1ccc(Cl)cc1)c(C)n2CC(=O)O [AZD1981] ; system: Fibroblast
Result: 4

Request: // fetch Population Hoechst High Intensity Objects (%) for `CN(C)C(=O)Cn1cc(-c2ccc(-c3cncc4ccccc34)cc2)cn1` ; system: Fibroblast
Result: 9

Request: // fetch Population Hoechst High Intensity Objects (%) for `CCCCC(=O)N(Cc1ccc(-c2ccccc2-c2nnn[nH]2)cc1)[C@H](C(=O)O)C(C)C` ; system: Fibroblast
Result: 4

Request: // fetch Population Hoechst High Intensity Objects (%) for `CCCOc1ccc2[nH]cc(C3=CCNCC3)c2n1.Cl` ; system: Fibroblast
Result: 2

Request: // fetch Population Hoechst High Intensity Objects (%) for `NCCc1cn(S(=O)(=O)c2c(Cl)nc3sccn23)c2ccccc12.O=C(O)C(=O)O` ; system: Fibroblast
Result: 7

Request: // fetch Population Hoechst High Intensity Objects (%) for CC(C)COc1ccc(CNC(=O)N(Cc2ccc(F)cc2)C2CCN(C)CC2)cc1 [PIMAVANSERIN] ; system: Fibroblast
Result: 12

Request: // fetch Population Hoechst High Intensity Objects (%) for Br.CS(=O)(=O)Nc1c(O)ccc2c1CCCC2C1=NCCN1 (centres undefined) ; system: Fibroblast
Result: 6

----------
Test system: U2OS
measurementProtocol: Multiplex assay against U2OS
Format: toxicity, cell-based
experimentalParameters: human, 48 h, 10 µM, compound concentration 10 uM, replicate 2
measureName: Population Apoptotic (%)
Value expressed in %; do not type the unit.

Request: Identify measured Population Apoptotic (%) corresponding to `CC(/C=C1\SC(=S)N(CCCC(=O)Nc2ccc(C(=O)O)c(O)c2)C1=O)=C\c1ccccc1`
Result: 82

Request: Identify measured Population Apoptotic (%) corresponding to `Cc1cnc(-c2cc(N3CCN(C(=O)CCS(C)(=O)=O)CC3)ncc2Cl)c(C)c1`
Result: 100

Request: Identify measured Population Apoptotic (%) corresponding to `CC(C)COc1ccc(CNC(=O)N(Cc2ccc(F)cc2)C2CCN(C)CC2)cc1`
Result: 95
